Values from paper PMC12823420

biological target: UAP56 (human, UniProt Q13838 1-428); test: AMP-PNP
pKd: −log10 of the molar value. Where no end group is shown, it is not given here.
experimental readout: pKd

SISRKSEDDEKLKKRKERFGIVTS (also: biotinylated, site not given here) [SARNP UCM-4 peptide, biotinylated]	4.96
VDVAAEKKVVKITSEIPQTERMQKRAERFNVPVS (also: biotinylated, site not given here) [SARNP UCM-1 peptide, biotinylated]	4.92
